meta.source: the supplement of paper PMC7877785

Assay: self-splicing fitness, log relative to wild type (ln ratio); higher = more splicing; Tetrahymena group I intron in knt gene, E. coli kanamycin selection, DiMSum; sequences stand for … in CUCUCU…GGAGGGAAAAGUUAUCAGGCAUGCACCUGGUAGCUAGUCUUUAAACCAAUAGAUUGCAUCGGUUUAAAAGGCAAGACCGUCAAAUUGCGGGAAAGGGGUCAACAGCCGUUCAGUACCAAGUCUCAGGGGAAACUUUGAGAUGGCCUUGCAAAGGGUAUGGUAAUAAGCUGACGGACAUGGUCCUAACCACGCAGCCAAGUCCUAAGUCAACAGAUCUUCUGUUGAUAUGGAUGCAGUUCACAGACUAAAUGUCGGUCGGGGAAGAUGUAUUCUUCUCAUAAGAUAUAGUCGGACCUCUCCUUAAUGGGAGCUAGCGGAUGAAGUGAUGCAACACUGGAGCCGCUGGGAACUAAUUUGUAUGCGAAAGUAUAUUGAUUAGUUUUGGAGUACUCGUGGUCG;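 further: selection with 25 µg/mL kanamycin versus none on LB agar overnight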
Details: 37 °C
Decision: self-splicing fitness (ln) >= -0.5 yields T, all other cases yield F.

Does the sequence AUUGAGCAAUAUUACGAUGU have recorded self-splicing fitness (ln) that is -0.5 or more?
F

Does the sequence UUCCAGCAAUAUUACGACCA have recorded self-splicing fitness (ln) that is -0.5 or more?
F

Does the sequence CGUAAGCAAUAUUACGUUUU have recorded self-splicing fitness (ln) that is -0.5 or more?
F

Does the sequence UGGAAGCAAUAUUACGGGCU have recorded self-splicing fitness (ln) that is -0.5 or more?
F

Does the sequence UUUAAGCAAUAUUACGCUAA have recorded self-splicing fitness (ln) that is -0.5 or more?
F

Does the sequence UACAAGCAAUAUUACGAACC have recorded self-splicing fitness (ln) that is -0.5 or more?
T

Does the sequence AAGCAGCAAUAUUACGUCCA have recorded self-splicing fitness (ln) that is -0.5 or more?
T

Does the sequence GCGGAGCAAUAUUACGAGUG have recorded self-splicing fitness (ln) that is -0.5 or more?
F

Does the sequence ACCGAGCAAUAUUACGCCCG have recorded self-splicing fitness (ln) that is -0.5 or more?
F

Does the sequence GCACAGCAAUAUUACGGCCU have recorded self-splicing fitness (ln) that is -0.5 or more?
T

Does the sequence AGGAAGCAAUAUUACGAGCA have recorded self-splicing fitness (ln) that is -0.5 or more?
F

Does the sequence GGAAAGCAAUAUUACGGGCG have recorded self-splicing fitness (ln) that is -0.5 or more?
T

Does the sequence AUCUAGCAAUAUUACGGAAG have recorded self-splicing fitness (ln) that is -0.5 or more?
F

Does the sequence GAUCAGCAAUAUUACGGAUG have recorded self-splicing fitness (ln) that is -0.5 or more?
F

Does the sequence AUUUAGCAAUAUUACGAACU have recorded self-splicing fitness (ln) that is -0.5 or more?
T

Does the sequence GACUAGCAAUAUUACGUUUA have recorded self-splicing fitness (ln) that is -0.5 or more?
F

----------
Assay: self-splicing fitness, log relative to wild type (ln ratio); higher = more splicing; Tetrahymena group I intron in knt gene, E. coli kanamycin selection, DiMSum; sequences stand for … in CUCUCU…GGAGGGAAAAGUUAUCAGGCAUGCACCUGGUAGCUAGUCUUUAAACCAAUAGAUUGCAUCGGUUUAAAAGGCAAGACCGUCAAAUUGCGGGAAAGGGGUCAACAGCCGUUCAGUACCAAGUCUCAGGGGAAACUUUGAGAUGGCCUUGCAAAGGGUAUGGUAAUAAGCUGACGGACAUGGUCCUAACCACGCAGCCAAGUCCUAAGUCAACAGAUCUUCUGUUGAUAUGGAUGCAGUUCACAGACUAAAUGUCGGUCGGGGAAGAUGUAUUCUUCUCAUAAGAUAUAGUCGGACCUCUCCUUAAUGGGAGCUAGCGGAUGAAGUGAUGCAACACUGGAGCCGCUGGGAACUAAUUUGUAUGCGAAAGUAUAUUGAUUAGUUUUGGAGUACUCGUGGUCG
Settings: 30 °C
Can you tell me self-splicing fitness (ln) for the items I'm about to list?
Keep it simple and answer with nothing but the number.

Give me measured self-splicing fitness (ln), please, for this sequence: GAGUAGCAAUAUUACGGGCU
-1.43

Give me measured self-splicing fitness (ln), please, for this sequence: CGGGAGCAAUAUUACGUAUU
-4.48

Give me measured self-splicing fitness (ln), please, for this sequence: ACUAAGCAAUAUUACGCUUU
-2.34

Give me measured self-splicing fitness (ln), please, for this sequence: ACUUAGCAAUAUUACGGUGC
-3.78

Give me measured self-splicing fitness (ln), please, for this sequence: UUCUAGCAAUAUUACGACAA
-0.37

Give me measured self-splicing fitness (ln), please, for this sequence: CGAAAGCAAUAUUACGACCU
-0.917

Give me measured self-splicing fitness (ln), please, for this sequence: GGAGAGCAAUAUUACGUCGG
-4.62

Give me measured self-splicing fitness (ln), please, for this sequence: GGCGAGCAAUAUUACGGAUC
-0.443

Give me measured self-splicing fitness (ln), please, for this sequence: GGCGAGCAAUAUUACGGUUC
-1.46

Give me measured self-splicing fitness (ln), please, for this sequence: UCUCAGCAAUAUUACGCCUU
-3.77

Give me measured self-splicing fitness (ln), please, for this sequence: CGAGAGCAAUAUUACGGACA
-1.85

Give me measured self-splicing fitness (ln), please, for this sequence: GAUAAGCAAUAUUACGUAAU
-1.78

Give me measured self-splicing fitness (ln), please, for this sequence: CGGUAGCAAUAUUACGCACA
-0.755

Give me measured self-splicing fitness (ln), please, for this sequence: CCCUAGCAAUAUUACGGAAG
-4.09

Give me measured self-splicing fitness (ln), please, for this sequence: AACCAGCAAUAUUACGGUCA
-0.301

Give me measured self-splicing fitness (ln), please, for this sequence: GCUUAGCAAUAUUACGGCAU
-1.79

Give me measured self-splicing fitness (ln), please, for this sequence: CCCGAGCAAUAUUACGAGAG
-3.25

Give me measured self-splicing fitness (ln), please, for this sequence: GGGCAGCAAUAUUACGGCAA
-0.705

Give me measured self-splicing fitness (ln), please, for this sequence: AGUCAGCAAUAUUACGUACA
-0.657

Give me measured self-splicing fitness (ln), please, for this sequence: ACGAAGCAAUAUUACGCAGU
-3.29

Give me measured self-splicing fitness (ln), please, for this sequence: CAUAAGCAAUAUUACGAUAG
0.359

Give me measured self-splicing fitness (ln), please, for this sequence: GAAGAGCAAUAUUACGUGUA
-2.66

Give me measured self-splicing fitness (ln), please, for this sequence: GACCAGCAAUAUUACGACUC
-0.264

Give me measured self-splicing fitness (ln), please, for this sequence: GCGAAGCAAUAUUACGUGAG
-1.89

Give me measured self-splicing fitness (ln), please, for this sequence: CUCGAGCAAUAUUACGUGUA
-2.89

Give me measured self-splicing fitness (ln), please, for this sequence: CAUGAGCAAUAUUACGCCUA
-2.28

Give me measured self-splicing fitness (ln), please, for this sequence: CAAGAGCAAUAUUACGCGUG
-4.13

Give me measured self-splicing fitness (ln), please, for this sequence: CUCCAGCAAUAUUACGGUCG
-0.742

Give me measured self-splicing fitness (ln), please, for this sequence: UUAGAGCAAUAUUACGUCUA
-0.712

Give me measured self-splicing fitness (ln), please, for this sequence: CUCGAGCAAUAUUACGACUG
-1.28

Give me measured self-splicing fitness (ln), please, for this sequence: GGAAAGCAAUAUUACGUGUC
-3.94

Give me measured self-splicing fitness (ln), please, for this sequence: GUAGAGCAAUAUUACGAACU
-1.19

Give me measured self-splicing fitness (ln), please, for this sequence: CGAUAGCAAUAUUACGGUAC
-3.93

Give me measured self-splicing fitness (ln), please, for this sequence: UAGUAGCAAUAUUACGGGUU
-3.97

Give me measured self-splicing fitness (ln), please, for this sequence: CGGCAGCAAUAUUACGCUAA
-1.59

Give me measured self-splicing fitness (ln), please, for this sequence: CCUAAGCAAUAUUACGAAGC
-2.92

Give me measured self-splicing fitness (ln), please, for this sequence: CGUCAGCAAUAUUACGCACU
-0.336

Give me measured self-splicing fitness (ln), please, for this sequence: CCUAAGCAAUAUUACGUAGU
-1.3

Give me measured self-splicing fitness (ln), please, for this sequence: AAGUAGCAAUAUUACGCACU
-0.686

Give me measured self-splicing fitness (ln), please, for this sequence: GCUCAGCAAUAUUACGUUUC
-0.455

Give me measured self-splicing fitness (ln), please, for this sequence: CGACAGCAAUAUUACGAAUG
-1.1

Give me measured self-splicing fitness (ln), please, for this sequence: AUGCAGCAAUAUUACGGCAC
-1.72

Give me measured self-splicing fitness (ln), please, for this sequence: ACUUAGCAAUAUUACGGGGA
-1.38

Give me measured self-splicing fitness (ln), please, for this sequence: UUAGAGCAAUAUUACGAAGG
-1.72

Give me measured self-splicing fitness (ln), please, for this sequence: UACGAGCAAUAUUACGACAU
-3.9

Give me measured self-splicing fitness (ln), please, for this sequence: GCUAAGCAAUAUUACGAACC
-0.414

Give me measured self-splicing fitness (ln), please, for this sequence: GUUUAGCAAUAUUACGUUUA
-2.69

Give me measured self-splicing fitness (ln), please, for this sequence: AUGAAGCAAUAUUACGGUCC
-0.305

Give me measured self-splicing fitness (ln), please, for this sequence: GUCUAGCAAUAUUACGAAUA
-1.87

Give me measured self-splicing fitness (ln), please, for this sequence: AAGAAGCAAUAUUACGGGGA
-3.37

Give me measured self-splicing fitness (ln), please, for this sequence: GAGCAGCAAUAUUACGCCCU
-0.964

Give me measured self-splicing fitness (ln), please, for this sequence: ACCGAGCAAUAUUACGUGAU
-3.36

Give me measured self-splicing fitness (ln), please, for this sequence: GAUGAGCAAUAUUACGACAA
-2.95

Give me measured self-splicing fitness (ln), please, for this sequence: UCCUAGCAAUAUUACGCAUA
-2.82

Give me measured self-splicing fitness (ln), please, for this sequence: GAGUAGCAAUAUUACGCUAU
-3.73

Give me measured self-splicing fitness (ln), please, for this sequence: GAUAAGCAAUAUUACGAUAA
-1.46

Give me measured self-splicing fitness (ln), please, for this sequence: AGUCAGCAAUAUUACGCGGC
-3.02

Give me measured self-splicing fitness (ln), please, for this sequence: GAGAAGCAAUAUUACGCACA
-0.725

Give me measured self-splicing fitness (ln), please, for this sequence: UUAAAGCAAUAUUACGUGAA
-1.8

Give me measured self-splicing fitness (ln), please, for this sequence: AUACAGCAAUAUUACGCCGU
-1.34

Give me measured self-splicing fitness (ln), please, for this sequence: GAGGAGCAAUAUUACGGUGG
-2.76

Give me measured self-splicing fitness (ln), please, for this sequence: CUGGAGCAAUAUUACGGGUU
-2.29

Give me measured self-splicing fitness (ln), please, for this sequence: CUAGAGCAAUAUUACGAUCA
-2.35

Give me measured self-splicing fitness (ln), please, for this sequence: CACAAGCAAUAUUACGAACA
-2.61

Give me measured self-splicing fitness (ln), please, for this sequence: UCCGAGCAAUAUUACGCUGG
-3.33

Give me measured self-splicing fitness (ln), please, for this sequence: ACCUAGCAAUAUUACGGGUU
-2.78

Give me measured self-splicing fitness (ln), please, for this sequence: AGAAAGCAAUAUUACGAUGG
-2.28
